Ref: ChEMBL document CHEMBL5058577

- Tested on: HEK-293T
- run.description: Multiplex assay against HEK293T
- Assay type: toxicity, cell-based
- reported.conditions: human, 12 h, 1 µM, compound concentration 1 uM, replicate 2
endpoint.name: Total Cell Count

Here's what some known entries look like.
Cc1cnc(-c2cc(N3CCN(C(=O)CCS(C)(=O)=O)CC3)ncc2Cl)c(C)c1    294
C[C@H](N)COC(=O)[C@@H](CCCCN)NC(=O)Cc1c(-c2ccc3ccccc3c2)[nH]c2c1ccc1ccccc12    291

Alright, here's another molecule for you.
Fill blank: measured Total Cell Count of the molecule "Cc1noc(-c2ccc(-c3ccc(CC(=O)O)cc3)cc2)c1NC(=O)O[C@H](C)c1ccccc1Cl" is ____.
296

###

- Test system: Fibroblast
- run.description: Multiplex assay against human fibroblast
- Format: toxicity, cell-based
- reported.conditions: 12 h, 10 µM, compound concentration 10 uM, replicate 2
Classification field: enter Condition met for Population Fragmented Nuclei (%) values not below 30%, Condition not met for values below it.

As a guide, the following entries are already answered.
N#Cc1c(Oc2cccc(OS(=O)(=O)CCCC(F)(F)F)c2)cccc1C(F)(F)F    Condition met
CCc1cc2cc(NS(=O)(=O)c3ccc(C#N)cc3)ccc2n(CC)c1=O    Condition not met
CN[C@@H](C)C(=O)N[C@H](C(=O)N1CCC[C@H]1C(=O)Nc1snnc1-c1ccccc1)C1CCCCC1 [GDC-0152]    Condition not met
COc1cccc2c1c(NS(=O)(=O)c1ccc(Cl)s1)nn2Cc1cccc(CNC(=O)C(C)(C)O)c1    Condition not met
O=C(CCCc1ccccc1)Nc1nc2ccccc2c(=O)s1    Condition not met

Is Population Fragmented Nuclei (%) at least 30%? Consider "C[C@H](N)COC(=O)[C@@H](CCCCN)NC(=O)Cc1c(-c2ccc3ccccc3c2)[nH]c2c1ccc1ccccc12"
Condition met

###

- System: U2OS
- run.description: Multiplex assay against U2OS
- Format: toxicity, cell-based
- reported.conditions: human, 12 h, 1 µM, compound concentration 1 uM, replicate 1
Classification field: enter 1 for Total Cell Count values not below 200, 0 for values below it.

Is Total Cell Count at least 200? Consider "COc1cccc2c1c(NS(=O)(=O)c1ccc(Cl)s1)nn2Cc1cccc(CNC(=O)C(C)(C)O)c1"
1

Is Total Cell Count at least 200? Consider "CN(C)C(=O)Cn1cc(-c2ccc(-c3cncc4ccccc34)cc2)cn1"
1

Is Total Cell Count at least 200? Consider "CCCCC(=O)N(Cc1ccc(-c2ccccc2-c2nnn[nH]2)cc1)[C@H](C(=O)O)C(C)C"
1

Is Total Cell Count at least 200? Consider "N#Cc1c(Oc2cccc(OS(=O)(=O)CCCC(F)(F)F)c2)cccc1C(F)(F)F"
1

Is Total Cell Count at least 200? Consider Cl.N=C(N)NC(=O)Cc1c(Cl)cccc1Cl [GUANFACINE HYDROCHLORIDE]
0

Is Total Cell Count at least 200? Consider "Cc1c(CC(=O)O)c2cccnc2n1Cc1ccc(S(C)(=O)=O)cc1C(F)(F)F"
1

Is Total Cell Count at least 200? Consider "N#Cc1cc(F)cc(-c2nc(-c3ccc(F)cn3)no2)c1"
0

Is Total Cell Count at least 200? Consider "NCCc1cn(S(=O)(=O)c2c(Cl)nc3sccn23)c2ccccc12.O=C(O)C(=O)O"
1
